Let's look at some binders and their measured pKd.
Molecular target: MAGI1_5, Q96QZ7
Sequence (Q96QZ7 986-1098): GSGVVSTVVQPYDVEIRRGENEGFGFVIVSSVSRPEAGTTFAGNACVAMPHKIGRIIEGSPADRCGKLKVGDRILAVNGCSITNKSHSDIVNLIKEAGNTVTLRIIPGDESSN
Assay: holdup assay
Design: key: below the threshold = too weak to quantify, mostly under pKd 3.1 to 4
Details: plain residues with an end cap or a label only (N-terminal biotin on a linker: ttds)
Number only, no unit.

Below are worked cases with known answers.
# binder, endpoint_result
measured = [
    ("SGGKRKETLV [NET1, Q7Z628]", 4.72),
    ("SSIDLWETAL [SLC15A5, A6NIM6]", 5.82),
]

Let us examine a further case.
pKd measured on KLVIKTETTV [RASSF6, Q6ZTQ3] = 4.23

Hello, the source for this data is paper PMC9482650, in case you need it.
